Source listed as ChEMBL document CHEMBL3865786.

Would you mind telling me the reported pIC50 of each entry?
- method: Cytotoxicity against human MCF7 cells assessed as reduction in cell viability after 48 hrs by MTT assay
- Format: functional, cell-based
- assay.context: MCF7, 48 h
Numbers only, as −log10 of the molar value.

O=Cc1ccc(-c2cc(=O)n3ccccc3n2)cc1
5.60
O=c1c(-c2cc(O)cc(O)c2)cnc2ccccn12
5.70
Cc1ccc(-c2cnc3ccccn3c2=O)cc1
5.40

Working through the 3 molecules below one at a time, give pIC50 for each.
1. COc1cc(-c2cnc3ccccn3c2=O)cc(OC)c1OC
2. O=c1c(-c2ccccc2)cnc2c(OCc3ccccc3)cccn12
3. O=c1cc(-c2ccc(Cl)cc2)nc2ccccn12

output:
1: 5.52; 2: 5.70; 3: 5.74

---

- method: Cytotoxicity against African green monkey Vero cells assessed as reduction in cell viability after 48 hrs by MTT assay
- Assay type: toxicity, cell-based
- assay.context: chlorocebus sabaeus, Vero cells; read-out: LC50
assay.endpoint: CC50 at 48 h (µM)
Answers are plain numbers, in µM.

O=c1cc(-c2ccc(O)c(O)c2)nc2ccccn12
32
COc1cccc(-c2cnc3ccccn3c2=O)c1
46

Working through the 5 compounds below one at a time, give CC50 at 48 h for each.
1. O=c1c(-c2ccc3c(c2)OCO3)cnc2ccccn12
2. O=c1cc(-c2ccc3c(c2)OCO3)oc2ccccc12
3. O=c1c(-c2cccc3ccccc23)coc2ccccc12
4. Cc1ccc(-c2cnc3ccccn3c2=O)cc1
5. O=Cc1ccc(-c2cc(=O)n3ccccc3n2)cc1

output:
1: 48; 2: 48; 3: 42; 4: 44; 5: 48
